Assign log10(Kd) to each entry below.
tested-on: RSV postfusion F (postF, F deltaFP) (Respiratory syncytial virus)
run-description: BLI, IgG on sensor, 100 nM antigen
Recorded Kd (log10, nM)

ADI-41324 (antibody, V domains shown) VH: EVQLVESGGGLVQPGGSLRLSCAASGFTVSNNYMRWVRQAPGKGLEWVSVIYSSGSTDYADSVKGRFTISRDNSKNTLYLQMNSLRAEDTAVYYCARERTLFYYDSSGFFDYWGQGTLVTVSS VL: ETTLTQSPGTLSLSPGERATLSCRASQSVDSSYLAWYQQKPGQAPRLLIYGASNRATGIPDRFSGSGSGTDFTLTISRLEPEDFAVYYCQQYGRSLTFGGGTKLEIK	-0.37

Please give log10(Kd) for each item listed below.
1. ADI-41265 (antibody, V domains shown) VH: EVQLVQSGAEVKKPGESLTISCKDSGYSFTSYWIGWVRQVPGKGLEWMGIVYPGDSRYSPSFQGHVTMSADKSINTAYLQWSTLKASDTAMYYCAKVVTYGSAIRWFESWGQGTLVTVSS VL: QSVLTQPPSVSAAPGQKVSISCSGSSSNIGNNFVSWYQQVPGTAPKLLIIDNNKRPSGIPDRFSGSKSGTSATLGITGLQTGDEADYYCGTWDSRLSAEVFGGGTKLTVL
2. ADI-41240 (antibody, V domains shown) VH: QVQLQQWGAGLLKPSETLSLICDVYGGSFSDYYWSWIRQSPGKGLEWIGEINHSGSTSFHPSLKSRISISIDTSNNQFSLNLSSMTAADTAVYYCARGTLRGYFDYWGQGTLVTVSS VL: EIVLTQSPSTLSAFVGDRVTITCRASQSISRWLAWYQQKPGKAPNLLISEASSLESGVPSRFSGSGSGTEFTLTISSLQPDDLGTYYCQQYNGYLWTFGQGTKVEIK
3. ADI-41286 (antibody, V domains shown) VH: QVQLVQSGAEVKKPGASVKVSCKASGYTFISYGISWVRQAPGQGPEWMGWISTHNGNTNYAQKLQGRVTMTTDTSTSTAYMELRSLRSDDTAVYYCARDERSIAVEVYLGSTFDIWGQGTMVTVSS VL: DIQVTQSPSSVSASVGDRVTITCRASQGISSWLAWYQQKPGKAPKLLIYAASTLQSGVPSRFSGSGSGTDFTLTISRLQPEDFATYYCQQANIFGVTFGPGTKVDIK
4. ADI-41292 (antibody, V domains shown) VH: EVQLLESGGGVVQPGRSLRLSCAASGFSFSSYGIHWVRQAPGKGLECVALMSYDGSEKYYADSVKGRFTISRDNSKNTLYLHMNSLRREDTAVYYCAKGSHLRWSHLDYYFHLWGRGTLVTVSS VL: DIVMTQSPSTLSASVGDRVTITCRASQSLSTWLAWYQQKPGKAPKLLISDASNLESGVPSRFSGRGSGTEFTLTISGLQPDDFATYYCQQERTFGQGTKVDIK

0.49
0.08
0.74
2.29
